assay: Metabolic stability in ICR/CD mouse liver microsomes assessed as compound remaining at 100 uM preincubated with NADPH for 5 mins followed by compound addition and measured upto 90 mins by LC-MS/MS method; assay type: ADME, Microsome; settings: time < 95 min, read-out: Stability
assay-endpoint: remaining at 1.5 h, 100 µM

Req: Using the record for `Cc1cc(Nc2cc3c(cn2)ncc(=O)n3-c2ccc(N)cc2)ncc1N1CCN(C(C)C)CC1` , report its remaining at 1.5 h, 100 µM.
Resp: > 80%
